experiment-summary: Cytotoxicity against human hepatoma cells after 3 days by MTS assay
Format: cell-based
// CC50 at 72 h lookup, one value per entry

Cc1nc(N(C)Cc2ccccc2)nc(N[C@@H]2C[C@H](CO)[C@@H](O)[C@H]2O)c1-c1nc2cnccc2s1 : > 25 µM
Cc1nc(NCC2CCN(C)CC2)nc(N[C@@H]2C[C@H](CO)[C@@H](O)[C@H]2O)c1-c1nc2cnccc2s1 : > 25 µM
Cc1ccc([C@@H](C)Nc2nc(C)c(-c3nc4cnccc4s3)c(N[C@@H]3C[C@H](CO)[C@@H](O)[C@H]3O)n2)cc1 : > 25 µM
Cc1nc(NC(C)(C)c2ccccc2)nc(N[C@@H]2C[C@H](CO)[C@@H](O)[C@H]2O)c1-c1nc2cnccc2s1 : > 25 µM

Noted for "Cc1ccc(C2(Nc3nc(C)c(-c4nc5cnccc5s4)c(N[C@@H]4C[C@H](CO)[C@@H](O)[C@H]4O)n3)CC2)cc1" : its CC50 at 72 h reads > 25 µM

* * *

System: Hepatitis C virus
experiment-summary: Antiviral activity against Hepatitis C virus 1b con1 infected in human hepatoma cells assessed as decrease in replicon RNA level after 3 days by RT-PCR analysis
Assay type: functional, organism-based, Hepacivirus hominis
details: genotype 1b Con1, 72 h
measured-endpoint: log10(EC50) (log10 of the value in nM)
Answers are given as log10 of EC50 in nM.

Cc1nc(N[C@H](C)c2ccc(OC(F)(F)F)cc2)nc(N[C@@H]2C[C@H](CO)[C@@H](O)[C@H]2O)c1-c1nc2c(CC(C)(C)C)nccc2s1 : 1.41
Cc1nc(N[C@H](C)c2ccccc2)nc(N[C@@H]2C[C@H](CO)[C@@H](O)[C@H]2O)c1-c1nc2cnccc2s1 : 0.85
CCc1nc(C)cc2sc(-c3c(C)nc(N[C@H](C)c4ccc(OC(F)(F)F)cc4)nc3N[C@@H]3C[C@H](CO)[C@@H](O)[C@H]3O)nc12 : 2.42
Cc1nc(N[C@H](C)c2ccc(OC(F)(F)F)cc2)nc(N[C@@H]2C[C@H](CO)[C@@H](O)[C@H]2O)c1-c1nc2c(CCC#N)nccc2s1 : 1.53
Cc1nc(N(C)Cc2ccccc2)nc(N[C@@H]2C[C@H](CO)[C@@H](O)[C@H]2O)c1-c1nc2cnccc2s1 : 2.48

So for "Cc1nc(NCc2ccccc2)nc(N[C@@H]2C[C@H](CO)[C@@H](O)[C@H]2O)c1-c1nc2cnccc2s1" , the logged log10(EC50) turned out to be 0.48

// log10(EC50) value for "Cc1nc(N[C@H](C)c2ccc(OC(F)(F)F)cc2)nc(N[C@@H]2C[C@H](CO)[C@@H](O)[C@H]2O)c1-c1nc2c(C3CC3)nccc2s1.Cl" : 1.78

The reported log10(EC50) of the compound "Cc1nc(N(C)C)nc(N[C@@H]2C[C@H](CO)[C@@H](O)[C@H]2O)c1-c1nc2cnccc2s1" was 2.75

Value of log10(EC50) reported for the compound "Cc1nc(NCC(F)(F)F)nc(N[C@@H]2C[C@H](CO)[C@@H](O)[C@H]2O)c1-c1nc2cnccc2s1" is 1.20

For reference, reported log10(EC50) for "COC(=O)CCc1nccc2sc(-c3c(C)nc(N[C@H](C)c4ccc(OC(F)(F)F)cc4)nc3N[C@@H]3C[C@H](CO)[C@@H](O)[C@H]3O)nc12" stands at 1.77

So for "Cc1nc(Nc2ccccc2)nc(N[C@@H]2C[C@H](CO)[C@@H](O)[C@H]2O)c1-c1nc2cnccc2s1" , the logged log10(EC50) turned out to be 2.23

"Cc1cc2sc(-c3c(C)nc(N[C@H](C)c4ccc(OC(F)(F)F)cc4)nc3N[C@@H]3C[C@H](CO)[C@@H](O)[C@H]3O)nc2cn1" has a reported log10(EC50) of 1.58

Entry under test: "CNc1nc(C)c(-c2nc3cnccc3s2)c(N[C@@H]2C[C@H](CO)[C@@H](O)[C@H]2O)n1" . Its log10(EC50) was 1.72

# log10(EC50) of "Cc1nc(N[C@H](C)c2ccc(-c3cnn(C)c3)cc2)nc(N[C@@H]2C[C@H](CO)[C@@H](O)[C@H]2O)c1-c1nc2cnccc2s1" = 1.23

Form: compound = "Cc1nc(N)nc(N[C@@H]2C[C@H](CO)[C@@H](O)[C@H]2O)c1-c1nc2cnccc2s1" ; log10(EC50) = 2.09

log10(EC50) for "Cc1cc2sc(-c3c(C)nc(N[C@H](C)c4ccc(OC(F)(F)F)cc4)nc3N[C@@H]3C[C@H](CO)[C@@H](O)[C@H]3O)nc2c(C)n1" is 1.63
